Provide the recorded IC50 for the entries that follow.
experimental system: human GPR17 receptor (Homo sapiens, UniProt Q13304)
Sequence (Q13304 whole entry): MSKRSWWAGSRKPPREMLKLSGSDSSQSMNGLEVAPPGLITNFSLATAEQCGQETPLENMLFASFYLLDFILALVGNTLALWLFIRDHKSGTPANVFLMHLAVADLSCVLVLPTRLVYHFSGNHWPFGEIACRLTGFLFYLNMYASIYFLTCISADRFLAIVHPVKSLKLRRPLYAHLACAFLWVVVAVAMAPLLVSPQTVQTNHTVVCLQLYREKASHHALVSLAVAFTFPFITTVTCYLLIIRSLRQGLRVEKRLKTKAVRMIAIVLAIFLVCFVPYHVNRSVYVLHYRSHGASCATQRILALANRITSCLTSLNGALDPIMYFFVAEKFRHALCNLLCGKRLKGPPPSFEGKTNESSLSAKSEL
assay summary: Calcium mobilization functional assay (Fluo-8, FLIPR TETRA) in HEK-293 hGPR17 (Gα-q assay)
experimental setup: antagonism of MDL29,951 (~EC80) induced Ca2+ signal; cell line (HEK-293 hGPR17 or HEK-293 Suchi5 hGPR17) not given

{"structure string": "N#Cc1ccc(NS(=O)(=O)c2c[nH]c(-c3ccc(F)c(F)c3)c2)c(F)c1", "IC50": "0.5 to 5 µM"}
{"structure string": "COc1ccc(F)c(NS(=O)(=O)c2c[nH]c(-c3ccccn3)c2)c1", "IC50": "5 to 50 µM"}
{"structure string": "COc1ncccc1-c1cc(S(=O)(=O)Nc2cc(F)c(C(F)(F)F)cc2F)c[nH]1", "IC50": "< 0.5 µM"}
{"structure string": "COc1ccc(-c2cc(S(=O)(=O)Nc3cc(F)c(C(F)(F)F)cc3F)c[nH]2)c(F)c1", "IC50": "5 to 50 µM"}
{"structure string": "Cc1ncc(-c2cc(S(=O)(=O)Nc3cc(F)c(C(F)(F)F)cc3F)c[nH]2)s1", "IC50": "0.5 to 5 µM"}
{"structure string": "O=S(=O)(Nc1cc(F)c(OC(F)F)cc1F)c1c[nH]c(-c2ncns2)c1", "IC50": "0.5 to 5 µM"}
{"structure string": "COc1cccc(-c2cc(S(=O)(=O)Nc3cc(F)c(C(F)(F)F)cc3F)c[nH]2)c1", "IC50": "0.5 to 5 µM"}

# next compound below
Output measured IC50 for this item: O=S(=O)(Nc1cc(F)c(C(F)(F)F)cc1F)c1c[nH]c(C2CCCCC2)c1
0.5 to 5 µM

* * *

Provide the reported IC50 of each item.
experimental system: UniProtKB Q13304
assay summary: Calcium mobilization functional assay (Fluo-8, FLIPR TETRA) in HEK-293 hGPR17 (Gα-q assay)
experimental setup: antagonism of MDL29,951 (~EC80) induced Ca2+ signal; cell line (HEK-293 hGPR17 or HEK-293 Suchi5 hGPR17) not given

Known results for compounds:
{"structure string": "N#Cc1cc(F)c(NS(=O)(=O)c2c[nH]c(-c3ccccn3)c2)cc1Cl", "IC50": "< 500 nM"}
{"structure string": "COc1cc(F)cc(Cc2c[nH]cc2S(=O)(=O)Nc2ccc(C#N)cc2F)c1", "IC50": "500 to 5000 nM"}
{"structure string": "Cc1ccc(-c2cc(S(=O)(=O)Nc3cc(F)c(C(F)(F)F)cc3F)c[nH]2)nc1", "IC50": "500 to 5000 nM"}
{"structure string": "O=S(=O)(Nc1ccc(OC(F)F)nc1F)c1c[nH]c(-c2ccccc2)c1", "IC50": "500 to 5000 nM"}
{"structure string": "COc1cc(F)ccc1-c1cc(S(=O)(=O)Nc2ccc(C#N)cc2F)c[nH]1", "IC50": "500 to 5000 nM"}

Answer for every listed entry: what is its IC50? The entries follow.
1. N#Cc1cc(F)c(NS(=O)(=O)c2c[nH]c(-c3ccccc3F)c2)cc1F
2. O=S(=O)(Nc1cc(F)c(C(F)(F)F)cc1F)c1c[nH]c(-c2ncccc2C(F)F)c1

1: < 500 nM; 2: 500 to 5000 nM

Dear colleague, could you send me IC50 for each of the items below? Thanks.
1. N#Cc1ccc(NS(=O)(=O)c2c[nH]c(-c3ccccc3OC(F)(F)F)c2)c(F)c1
2. O=S(=O)(Nc1cc(F)c(C(F)(F)F)cc1F)c1c[nH]cc1Cc1cccc(Cl)c1

1. 500 to 5000 nM
2. 500 to 5000 nM

* * *

experimental system: human GPR17 receptor (Homo sapiens, UniProt Q13304)
assay summary: Calcium mobilization functional assay (Fluo-8, FLIPR TETRA) in HEK-293 hGPR17 (Gα-q assay)
experimental setup: antagonism of MDL29,951 (~EC80) induced Ca2+ signal; cell line (HEK-293 hGPR17 or HEK-293 Suchi5 hGPR17) not given
pIC50: −log10 of the molar value.
measured endpoint: pIC50

Respectfully, I request pIC50 for each entry included below.
1. O=S(=O)(Nc1cc(F)c(Br)cc1F)c1c[nH]c(-c2ccsc2)c1
2. O=S(=O)(Nc1cc(F)cs1)c1c[nH]c(-c2ccccc2)c1
3. COc1nc(OC(F)F)c(F)cc1NS(=O)(=O)c1c[nH]c(-c2ccccc2F)c1
4. N#Cc1cc(F)c(NS(=O)(=O)c2c[nH]c(-c3cccc(F)c3)c2)cc1F
5. Cc1ccc(-c2c[nH]cc2S(=O)(=O)Nc2ccc(C#N)cc2F)cc1
6. N#Cc1ccc(-c2cc(S(=O)(=O)Nc3cc(F)c(C(F)(F)F)cc3F)c[nH]2)cc1
7. N#Cc1ccc(NS(=O)(=O)c2c[nH]c(-c3ncccn3)c2)c(F)c1

["> 6.30", "5.30 to 6.30", "> 6.30", "> 6.30", "5.30 to 6.30", "4.30 to 5.30", "4.30 to 5.30"]

* * *

Please respond with reported IC50 for every item in the list.
experimental system: human GPR17 receptor (Homo sapiens, UniProt Q13304)
Construct: host or cells: HEK-293
assay summary: Calcium mobilization functional assay (Fluo-8, FLIPR TETRA) in HEK-293 hGPR17 (Gα-q assay)
Assay type: cell-based
experimental setup: antagonism of MDL29,951 (~EC80) induced Ca2+ signal; cell line (HEK-293 hGPR17 or HEK-293 Suchi5 hGPR17) not given

Solved cases (3 shown):
{"structure string": "O=S(=O)(Nc1cc(Cl)ncc1F)c1c[nH]c(-c2ccccc2)c1", "IC50": "5 to 50 µM"}
{"structure string": "O=S(=O)(Nc1cc(F)c(OC(F)F)cc1F)c1c[nH]c(-c2cccc(Br)n2)c1", "IC50": "< 0.5 µM"}
{"structure string": "Cc1ccc(F)c(-c2cc(S(=O)(=O)Nc3cc(F)c(C(F)(F)F)cc3F)c[nH]2)c1", "IC50": "0.5 to 5 µM"}

// batch mode: one IC50 value per listed entry
1. N#Cc1ccc(NS(=O)(=O)c2c[nH]cc2Cc2ccccc2C(F)(F)F)c(F)c1
2. N#Cc1cc(F)c(NS(=O)(=O)c2c[nH]cc2Cc2ccccc2)cc1F
3. O=S(=O)(Nc1cc(F)c(OC(F)F)cc1F)c1c[nH]c(-c2ccoc2)c1
4. O=S(=O)(Nc1cnc(C(F)(F)F)s1)c1c[nH]c(-c2ccccc2)c1
5. COc1nc(Br)cnc1NS(=O)(=O)c1c[nH]c(-c2ccccc2)c1
6. N#Cc1ccc(NS(=O)(=O)c2c[nH]c(-c3ccc(Cl)cc3F)c2)c(F)c1

5 to 50 µM
< 0.5 µM
< 0.5 µM
5 to 50 µM
0.5 to 5 µM
0.5 to 5 µM

State the recorded IC50 for every item in the following list.
1. COc1ccccc1-c1c[nH]cc1S(=O)(=O)Nc1ccc(C#N)cc1F
2. N#Cc1ccc(NS(=O)(=O)c2c[nH]cc2Cc2cccc(OC(F)F)c2)c(F)c1
3. O=S(=O)(Nc1cc(F)c(C(F)(F)F)cc1F)c1c[nH]c(-c2cccc3ccnn23)c1

1: 5 to 50 µM; 2: < 0.5 µM; 3: 0.5 to 5 µM

* * *

experimental system: human GPR17 receptor (Homo sapiens)
assay summary: Calcium mobilization functional assay (Fluo-8, FLIPR TETRA) in HEK-293 hGPR17 (Gα-q assay)
experimental setup: antagonism of MDL29,951 (~EC80) induced Ca2+ signal; cell line (HEK-293 hGPR17 or HEK-293 Suchi5 hGPR17) not given
measured endpoint: IC50

# return IC50 for each item in the list
1. Cc1cnc(NS(=O)(=O)c2c[nH]c(-c3ccccc3)c2)c(F)c1 [Cpd 136]
2. COc1cc(F)cc(-c2cc(S(=O)(=O)Nc3ccc(C#N)cc3F)c[nH]2)c1 [Cpd 299]
3. O=C1CCC(c2cc(S(=O)(=O)Nc3cc(F)c(C(F)(F)F)cc3F)c[nH]2)C1 (stereo not drawn) [Cpd 520]
4. N#CCOc1cc(F)c(NS(=O)(=O)c2c[nH]c(-c3ccc(F)cc3)c2)cc1F [Cpd 450]
5. O=S(=O)(Nc1cc(F)c(OC(F)F)cc1F)c1c[nH]c(-c2nnco2)c1 [Cpd 611]
6. O=S(=O)(Nc1cc(F)c(C(F)(F)F)cc1F)c1c[nH]c(-c2cccs2)c1 [Cpd 272]

["500 to 5000 nM", "500 to 5000 nM", "5000 to 50000 nM", "500 to 5000 nM", "500 to 5000 nM", "< 500 nM"]

Field: IC50. Fill in for each record below.
1. Cc1c(Cl)cccc1-c1cc(S(=O)(=O)Nc2ccc(C#N)cc2F)c[nH]1 [Cpd 253]
2. O=S(=O)(Nc1cc(F)c(OC(F)F)cc1F)c1c[nH]cc1Cc1cccc(Cl)c1 [Cpd 454]
3. O=S(=O)(Nc1nc(F)c(OCCF)cc1F)c1c[nH]cc1Cc1ccccc1 [Cpd 501]
4. O=S(=O)(Nc1cc(F)c(C(F)(F)F)cc1F)c1c[nH]c(-c2cccc(C(F)(F)F)c2)c1 [Cpd 365]
5. O=S(=O)(Nc1ncc(F)cc1F)c1c[nH]c(-c2ccccc2F)c1 [Cpd 133]
6. COc1cccc(Cc2c[nH]cc2S(=O)(=O)Nc2cc(F)c(C(F)(F)F)cc2F)c1 [Cpd 482]

1. 500 to 5000 nM
2. 500 to 5000 nM
3. 500 to 5000 nM
4. 500 to 5000 nM
5. 5000 to 50000 nM
6. 500 to 5000 nM

Each of the following entries comes with a recorded value; kindly state IC50 for each.
1. N#Cc1ccc(NS(=O)(=O)c2c[nH]c(-c3ccsc3)c2)c(F)c1 [Cpd 103]
2. N#Cc1cc(F)c(NS(=O)(=O)c2cc(-c3ccccc3)[nH]c2F)cc1F [Cpd 077]
3. COc1ccccc1-c1cc(S(=O)(=O)Nc2ccc(C#N)cc2F)c[nH]1 [Cpd 017]
4. Cc1cccc(-c2cc(S(=O)(=O)Nc3cc(F)c(C(F)(F)F)cc3F)c[nH]2)c1 [Cpd 337]
5. COc1ccc(F)c(-c2cc(S(=O)(=O)Nc3ccc(C#N)cc3F)c[nH]2)c1 [Cpd 084]

1. < 500 nM
2. 500 to 5000 nM
3. < 500 nM
4. 500 to 5000 nM
5. < 500 nM

Would you mind listing IC50 for each of the following compounds?
1. O=S(=O)(Nc1cc(F)c(C(F)(F)F)cc1F)c1c[nH]c(-c2cccc(C(F)(F)F)n2)c1 [Cpd 344]
2. N#Cc1ccc(NS(=O)(=O)c2c[nH]c(C3CC3)c2)c(F)c1 [Cpd 236]
3. N#Cc1ccc(NS(=O)(=O)c2c[nH]cc2Cc2ccc(F)cc2)c(F)c1 [Cpd 177]
4. O=S(=O)(Nc1cccc(F)c1)c1c[nH]c(-c2ccccn2)c1 [Cpd 125]
5. N#Cc1ccc(NS(=O)(=O)c2c[nH]cc2Cc2cccc(Cl)c2)c(F)c1 [Cpd 206]
6. N#Cc1ccc(NS(=O)(=O)c2c[nH]cc2Cc2ccc3c(c2)OCC3)c(F)c1 [Cpd 608]
7. O=S(=O)(Nc1ncc(Br)cc1F)c1c[nH]c(-c2ccccc2)c1 [Cpd 168]
8. O=S(=O)(Nc1ccc(C(F)(F)F)nc1)c1c[nH]cc1Cc1ccccc1 [Cpd 152]

1: 500 to 5000 nM; 2: 5000 to 50000 nM; 3: < 500 nM; 4: 5000 to 50000 nM; 5: < 500 nM; 6: 5000 to 50000 nM; 7: 500 to 5000 nM; 8: 5000 to 50000 nM

Hi team, please reply with IC50 for each item in this list.
1. N#Cc1cc(F)c(NS(=O)(=O)c2c[nH]c(-c3cscn3)c2)cc1F [Cpd 642]
2. O=S(=O)(Nc1cc(F)ccc1F)c1c[nH]c(-c2ccccc2F)c1 [Cpd 051]
3. N#Cc1cc(F)c(NS(=O)(=O)c2c[nH]c(-c3ccns3)c2)cc1F [Cpd 656]
4. O=S(=O)(Nc1cc(F)c(Br)cc1F)c1c[nH]c(-c2cccs2)c1 [Cpd 478]
5. N#Cc1ccc(NS(=O)(=O)c2c[nH]cc2C2=CCCC2)c(F)c1 [Cpd 238]

1. < 500 nM
2. 500 to 5000 nM
3. 500 to 5000 nM
4. < 500 nM
5. < 500 nM

Batch: IC50 for all items listed.
1. N#Cc1ccc(NS(=O)(=O)c2c[nH]c(-c3ccccc3F)c2)cc1F [Cpd 072]
2. N#Cc1cc(F)c(NS(=O)(=O)c2c[nH]c(-c3cccc(Cl)n3)c2)cc1F [Cpd 575]

< 500 nM
< 500 nM

Can you give me IC50 for all of these, one by one?
1. N#Cc1ccc(F)c(-c2cc(S(=O)(=O)Nc3cc(F)c(C#N)cc3F)c[nH]2)c1 [Cpd 645]
2. N#Cc1ccc(NS(=O)(=O)c2c[nH]c(-c3ccc(F)s3)c2)c(F)c1 [Cpd 570]
3. O=S(=O)(Nc1cc(F)c(OCC(F)F)cc1F)c1c[nH]cc1Cc1ccccc1 [Cpd 468]
4. Cc1occc1-c1cc(S(=O)(=O)Nc2cc(F)c(C(F)(F)F)cc2F)c[nH]1 [Cpd 653]

["< 500 nM", "< 500 nM", "500 to 5000 nM", "< 500 nM"]
